Measured T/C values are reported for all entries that follow.
Test system: nude mice, LX-1 lung xenograft intrarenal, tumor weight T/C
Assay: NCI In Vivo Anticancer Drug Screen. Data for tumor model Human Lung LX-1 Xenograft (intrarenal inoculation) in NU/NU Swiss (nude) mice
Settings: endpoint: mean tumor weight change; dose: 150.0 mg/kg/injection; schedule: Q04DX003 (sc); vehicle: saline; higher = larger tumour
Records with an inconclusive call do not appear.

Field: example entries. Status: answers known.
>>> data_value("CCCCCCCCCCCCCCCCP(=O)(OCCOCCCCCC)OCCOCCCCCC")
"91 % of control"
>>> data_value("N=c1ccn2c(n1)OC1C(O)C(CO)OC12 (stereo unspecified)")
"121 % of control"
>>> data_value("COc1cc(Cc2nccc3cc(OC)c(OC)cc23)c(C(C)=O)cc1OC")
"87 % of control"
>>> data_value("CN(N=O)C(=O)N[C@@H](C=O)[C@@H](O)[C@H](O)[C@H](O)CO")
"22 % of control"
>>> data_value("O=P(O)(NCCCl)NCCCl")
"33 % of control"
>>> data_value("CCn1cnc2c(=S)nc[nH]c21")
"159 % of control"
>>> data_value("COC1C(OC(=O)/C=C/C=C/C=C/C=C/C(=O)O)CCC2(CO2)C1C1(C)OC1CC=C(C)C (stereo unspecified)")
"81 % of control"
>>> data_value("O=C1C(O)=C(c2ccccc2)C(=O)C(O)=C1c1ccccc1")
"71 % of control"
>>> data_value("[Cl][Mn][Cl]")
"50 % of control"
>>> data_value("[Cl][Sn]([c]1ccccc1)[c]1ccccc1")
"92 % of control"

Would you kindly look at the next entry?
Read off the recorded T/C for N=C(N)Sc1cc(O)ccc1O
164 % of control

====

Tested on: nude mice, LX-1 lung xenograft intrarenal, tumor weight T/C
Test: NCI In Vivo Anticancer Drug Screen. Data for tumor model Human Lung LX-1 Xenograft (intrarenal inoculation) in NU/NU Swiss (nude) mice
Settings: endpoint: mean tumor weight change; dose: 400.0 mg/kg/injection; schedule: Q04DX003 (sc); vehicle: saline with Tween-80; higher = larger tumour
Results filed as inconclusive are left out.
metric: T/C

Field: example entries. Status: answers known.
>>> data_value("Nc1nc2ccc(NCc3ccc(C(=O)NC(CCC(=O)O)C(=O)O)cc3)cc2c(=O)[nH]1 (stereo not given)")
"109 % of control"
>>> data_value("CC1(C)COCN1COC1CCCCC1")
"68 % of control"
>>> data_value("CC(=O)Oc1ccc[nH]c1=O")
"87 % of control"
>>> data_value("Cc1cc2cc3cc(C)c(N)cc3nc2cc1N")
"63 % of control"

Would you kindly look at the next entry?
Read off the recorded T/C for NC(=S)N/N=C/c1ccc(O)cn1
64 % of control

====

Tested on: nude mice, LX-1 lung xenograft intrarenal, tumor weight T/C
Test: NCI In Vivo Anticancer Drug Screen. Data for tumor model Human Lung LX-1 Xenograft (intrarenal inoculation) in NU/NU Swiss (nude) mice
Conditions: endpoint: mean tumor weight change; dose: 9.0 mg/kg/injection; schedule: Q04DX003 (sc); vehicle: saline with Tween-80; higher = larger tumour
Records with an inconclusive call do not appear.
metric: T/C

>>> data_value("O=C1c2cccc3cc([N+](=O)[O-])cc(c23)C(=O)N1CCN1CCCC1")
"104 % of control"

Read off the recorded T/C for C[CH2][Pb]([CH2]C)([CH2]C)[O]C(=O)COc1ccccc1
47 % of control

Read off the recorded T/C for CN(C)CCN1C(=O)c2cccc3cc([N+](=O)[O-])cc(c23)C1=O
94 % of control

Read off the recorded T/C for C1CCC2C[N-]CCC2C1.C1CCC2C[N-]CCC2C1.C1CCC2C[N-]CCC2C1.C1CCC2C[N-]CCC2C1.[Cl][Rh][Cl] (centres undefined)
89 % of control

Each recorded value in this set is attributed to PubChem BioAssay AID264.
